details: a range is the spread between reports
Form field: melting point (one value per entry).

Lab note: CCCCCCCCCCCCCCCCCCCCCCCCCCCCCC gave melting point of 65.8 to 67 °C

The compound listed as O=c1[nH]c2ccccc2o1 has a reported melting point of 138 to 140 °C

Per the records, this compound ( Oc1ccc(Cl)cc1Cl ) has melting point equal to 42 to 45 °C

Form: compound = CCOc1cccc(C(=O)O)c1 ; melting point = 136 to 137 °C

Entry under test: O=[N+]([O-])c1cccc2cnccc12 . Its melting point was 108 to 110 °C

CCC has a reported melting point of -188 °C

* * *

details: a range is the spread between reports
experimental.endpoint: melting point

Recorded results for 3 compounds are shown here.
O=C1OC(=O)c2cccc3cccc1c23: 270 to 271 °C
C(#Cc1ccccc1)c1ccccc1: 60 to 63 °C
COCOC: -105 °C

// next item, melting point requested
Given item C=CCI , the value recorded as its melting point is -99.3 to -99 °C

* * *

Overview of reported melting point across a group of compounds:
conditions: a range is the spread between reports

Use the examples below as a reference point.
CCCc1ccccc1C: -60.3 to -60 °C
C1=CC=CCC=C1: -80 to -79.5 °C
N#Cc1cccc([N+](=O)[O-])c1: 116 to 117 °C
Cc1occc(=O)c1O: 162 to 163 °C

Now for another entry.
The compound identified as C1CNCCN1 registered its melting point at 106 to 110 °C

* * *

details: a range is the spread between reports
experimental.endpoint: melting point

Known melting point results, listed for orientation:
c1ccc2cnccc2c1: 26 to 26.5 °C
NCCCNCCCCNCCCN: 28 to 29 °C
Cc1ccc([N+](=O)[O-])cc1: 51 to 54 °C
C#CCCO: -63.6 to -63 °C

The reported melting point of the molecule CCCCCCCCCCCCCC(=O)O was 53.9 to 55.1 °C

Looking up O=C(O)C(F)(F)Cl , I see its melting point listed as 22 to 25 °C

Noted for CCC(=O)OC : its melting point reads -88 to -87.5 °C

Documented melting point of Sc1nc2ccccc2[nH]1 : 298 °C

Clc1ccc(SSc2ccc(Cl)cc2)cc1 has a reported melting point of 68 to 73 °C

Sure, the documented melting point for S=C=Nc1cccc2ccccc12 is 56 to 58 °C

Value of measured melting point for the entry CCCCCCCCCCCCCCCCCCC(=O)O : 69 to 69.4 °C

Data point: CCCCCCCCN ; melting point = -1 to 0 °C

melting point for CCCCCCCCCCCCCCC(C)O (stereo not given) is 44 to 47 °C

// melting point lookup, molecule = CCCCNC(=O)NS(=O)(=O)c1ccc(C)cc1 , result: 128 to 129 °C

Lab book: melting point of CCCCCCOC(C)=O noted as -80.9 to -80 °C

* * *

conditions: a range is the spread between reports
experimental.endpoint: melting point

C=C(C)C#N: -36 to -35.8 °C
C#CCCC(C)C: -125 to -124 °C
Nc1ccc(Cl)cc1[N+](=O)[O-]: 116 to 118 °C
CC(C)CC(C)C: -123 to -119 °C
CCCCNC(N)=O: 95 to 97 °C
OC(COc1ccccc1)COc1ccccc1: 81.5 to 82 °C

// field: melting point; key: O=Nc1ccccc1 ; value = 65 to 68.5 °C

Sample O=c1c(O)c(-c2ccccc2)oc2ccccc12 ; melting point observed: 170 to 172 °C

Sure, the documented melting point for NC(=O)OCc1ccccc1 is 87 to 88 °C
